measured_on: plasma membranes of living Jurkat lymphocytes
assay_text: Saturation binding of fluorescent probes to living Jurkat lymphocytes (flow cytometry)
Design: species or system human
setup_conditions: 37° C., 5 min, media containing 10% FBS, free cholesterol (200 μM, 10% DMSO) as competitor; read-out: Kd, app (nM, 37° C.)
Property: Kd; scope: individual molecules
Only the number, expressed in nM, is required.

The examples below pair each entry with its known result.
Cc1cc(C(=O)N[C@@H](CCC(=O)O)C(=O)NCCC(=O)NCCC(=O)N[C@H]2CC[C@@]3(C)C(=CC[C@H]4[C@@H]5CC[C@H]([C@H](C)CCCC(C)C)[C@@]5(C)CC[C@@H]43)C2)ccc1-c1c2cc(F)c(=O)cc-2oc2cc(O)c(F)cc12 : 639
Cc1cc(C(=O)N[C@@H](CCC(=O)O)C(=O)N[C@@H](CCC(=O)O)C(=O)NCCCN[C@H]2CC[C@@]3(C)C(=CC[C@H]4[C@@H]5CC[C@H]([C@H](C)CCCC(C)C)[C@@]5(C)CC[C@@H]43)C2)ccc1-c1c2cc(F)c(=O)cc-2oc2cc(O)c(F)cc12 : 1540
CC[C@H](CC[C@@H](C)[C@H]1CC[C@H]2[C@@H]3CC=C4C[C@@H](NCCCNC(=O)CCNC(=O)[C@H](CCC(=O)O)NC(=O)c5ccc(-c6c7cc(F)c(=O)cc-7oc7cc(O)c(F)cc67)c(C)c5)CC[C@]4(C)[C@H]3CC[C@]12C)C(C)C : 435
Cc1cc(C(=O)N[C@@H](CCC(=O)O)C(=O)N[C@@H](CCC(=O)O)C(=O)NCCC(=O)NCCCN[C@H]2CC[C@@]3(C)C(=CC[C@H]4[C@@H]5CC[C@H]([C@H](C)CCCC(C)C)[C@@]5(C)CC[C@@H]43)C2)ccc1-c1c2cc(F)c(=O)cc-2oc2cc(O)c(F)cc12 : 449

Please turn your attention to the following entry.
Enquiry: Entry Cc1cc(C(=O)N[C@@H](CCC(=O)O)C(=O)NCCC(=O)NCCCN[C@H]2CC[C@@]3(C)C(=CC[C@H]4[C@@H]5CC[C@H]([C@H](C)CCCC(C)C)[C@@]5(C)CC[C@@H]43)C2)ccc1-c1c2cc(F)c(=O)cc-2oc2cc(O)c(F)cc12 : reported Kd = ?
Return: 344

* * *

Tested on: plasma membranes of living Jurkat lymphocytes
assay_text: Saturation binding of fluorescent probes to living Jurkat lymphocytes (flow cytometry)
Parameters: species or system human
setup_conditions: 16° C., 10 min, media containing 10% FBS, free cholesterol (200 μM, 10% DMSO) as competitor
metric: Bmax (×10^5, 16° C.)

Cc1cc(C(=O)N[C@@H](CCC(=O)O)C(=O)N[C@@H](CCC(=O)O)C(=O)NCCC(=O)NCCCN[C@H]2CC[C@@]3(C)C(=CC[C@H]4[C@@H]5CC[C@H]([C@H](C)CCCC(C)C)[C@@]5(C)CC[C@@H]43)C2)ccc1-c1c2cc(F)c(=O)cc-2oc2cc(O)c(F)cc12 [compound 5] : 3.93 ± 0.64 ×10^5

Enquiry: Query: Bmax (×10^5, 16° C.); subject: Cc1cc(C(=O)N[C@@H](CCC(=O)O)C(=O)NCCC(=O)NCCCO[C@H]2CC[C@@]3(C)C(=CC[C@H]4[C@@H]5CC[C@H]([C@H](C)CCCC(C)C)[C@@]5(C)CC[C@@H]43)C2)ccc1-c1c2cc(F)c(=O)cc-2oc2cc(O)c(F)cc12 [compound 9]
Return: 1.68 ± 0.26 ×10^5

Enquiry: Another compound to check: Cc1cc(C(=O)N[C@@H](CCC(=O)O)C(=O)NCCC(=O)NCCCN[C@H]2CC[C@@]3(C)C(=CC[C@H]4[C@@H]5CC[C@H]([C@H](C)CCCC(C)C)[C@@]5(C)CC[C@@H]43)C2)ccc1-c1c2cc(F)c(=O)cc-2oc2cc(O)c(F)cc12 [compound 4]
Return: 2.31 ± 0.14 ×10^5

Enquiry: Then this compound: Cc1cc(C(=O)N[C@@H](CCC(=O)O)C(=O)NCCC(=O)NCCC(=O)N[C@H]2CC[C@@]3(C)C(=CC[C@H]4[C@@H]5CC[C@H]([C@H](C)CCCC(C)C)[C@@]5(C)CC[C@@H]43)C2)ccc1-c1c2cc(F)c(=O)cc-2oc2cc(O)c(F)cc12 [compound 10]
Return: 1.86 ± 0.39 ×10^5

Enquiry: Another: CC[C@H](CC[C@@H](C)[C@H]1CC[C@H]2[C@@H]3CC=C4C[C@@H](NCCCNC(=O)CCNC(=O)[C@H](CCC(=O)O)NC(=O)c5ccc(-c6c7cc(F)c(=O)cc-7oc7cc(O)c(F)cc67)c(C)c5)CC[C@]4(C)[C@H]3CC[C@]12C)C(C)C [compound 8]
Return: 0.73 ± 0.03 ×10^5

* * *

measured_on: plasma membranes of living Jurkat lymphocytes
assay_text: Saturation binding of fluorescent probes to living Jurkat lymphocytes (flow cytometry)
Parameters: species or system human
setup_conditions: 16° C., 10 min, media containing 10% FBS, free cholesterol (200 μM, 10% DMSO) as competitor; read-out: Kd, app (nM, 16° C.)
Kd for assorted compounds
Give the value in nM but do not write nM after it.

As a guide, the following entries are already answered.
Cc1cc(C(=O)N[C@@H](CCC(=O)O)C(=O)NCCC(=O)NCCC(=O)N[C@H]2CC[C@@]3(C)C(=CC[C@H]4[C@@H]5CC[C@H]([C@H](C)CCCC(C)C)[C@@]5(C)CC[C@@H]43)C2)ccc1-c1c2cc(F)c(=O)cc-2oc2cc(O)c(F)cc12 [compound 10] : 786
CC[C@H](CC[C@@H](C)[C@H]1CC[C@H]2[C@@H]3CC=C4C[C@@H](NCCCNC(=O)CCNC(=O)[C@H](CCC(=O)O)NC(=O)c5ccc(-c6c7cc(F)c(=O)cc-7oc7cc(O)c(F)cc67)c(C)c5)CC[C@]4(C)[C@H]3CC[C@]12C)C(C)C [compound 8] : 286
Cc1cc(C(=O)N[C@@H](CCC(=O)O)C(=O)NCCC(=O)NCCCO[C@H]2CC[C@@]3(C)C(=CC[C@H]4[C@@H]5CC[C@H]([C@H](C)CCCC(C)C)[C@@]5(C)CC[C@@H]43)C2)ccc1-c1c2cc(F)c(=O)cc-2oc2cc(O)c(F)cc12 [compound 9] : 954
Cc1cc(C(=O)N[C@@H](CCC(=O)O)C(=O)N[C@@H](CCC(=O)O)C(=O)NCCC(=O)NCCCN[C@H]2CC[C@@]3(C)C(=CC[C@H]4[C@@H]5CC[C@H]([C@H](C)CCCC(C)C)[C@@]5(C)CC[C@@H]43)C2)ccc1-c1c2cc(F)c(=O)cc-2oc2cc(O)c(F)cc12 [compound 5] : 767

Enquiry: Can you look up the measured Kd of Cc1cc(C(=O)N[C@@H](CCC(=O)O)C(=O)NCCC(=O)NCCCN[C@H]2CC[C@@]3(C)C(=CC[C@H]4[C@@H]5CC[C@H]([C@H](C)CCCC(C)C)[C@@]5(C)CC[C@@H]43)C2)ccc1-c1c2cc(F)c(=O)cc-2oc2cc(O)c(F)cc12 [compound 4] for me?
Return: 403

* * *

As shown below, each of these compounds has a reported melting point value.

Cc1cc(C(=O)N[C@@H](CCC(=O)O)C(=O)N[C@@H](CCC(=O)O)C(=O)NCCCN[C@H]2CC[C@@]3(C)C(=CC[C@H]4[C@@H]5CC[C@H]([C@H](C)CCCC(C)C)[C@@]5(C)CC[C@@H]43)C2)ccc1-c1c2cc(F)c(=O)cc-2oc2cc(O)c(F)cc12 : 175 to 178 °C
Cc1cc(C(=O)N[C@@H](CCC(=O)O)C(=O)NCCC(=O)NCCC(=O)N[C@H]2CC[C@@]3(C)C(=CC[C@H]4[C@@H]5CC[C@H]([C@H](C)CCCC(C)C)[C@@]5(C)CC[C@@H]43)C2)ccc1-c1c2cc(F)c(=O)cc-2oc2cc(O)c(F)cc12 : 192 to 194 °C

Enquiry: Recorded melting point of Cc1cc(C(=O)N[C@@H](CCC(=O)O)C(=O)NCCC(=O)NCCCO[C@H]2CC[C@@]3(C)C(=CC[C@H]4[C@@H]5CC[C@H]([C@H](C)CCCC(C)C)[C@@]5(C)CC[C@@H]43)C2)ccc1-c1c2cc(F)c(=O)cc-2oc2cc(O)c(F)cc12 , please.
Return: 192 to 194 °C

Enquiry: Also check Cc1cc(C(=O)NCC(=O)NCCC(=O)NCCCN[C@H]2CC[C@@]3(C)C(=CC[C@H]4[C@@H]5CC[C@H]([C@H](C)CCCC(C)C)[C@@]5(C)CC[C@@H]43)C2)ccc1-c1c2cc(F)c(=O)cc-2oc2cc(O)c(F)cc12
Return: 200 to 203 °C

* * *

Recorded Bmax (×10^5, 37° C.) by entry
Tested on: plasma membranes of living Jurkat lymphocytes
assay_text: Saturation binding of fluorescent probes to living Jurkat lymphocytes (flow cytometry)
Set-up: species or system human
setup_conditions: 37° C., 5 min, media containing 10% FBS, free cholesterol (200 μM, 10% DMSO) as competitor

Enquiry: # query: Bmax (×10^5, 37° C.) of entry Cc1cc(C(=O)N[C@@H](CCC(=O)O)C(=O)N[C@@H](CCC(=O)O)C(=O)NCCC(=O)NCCCN[C@H]2CC[C@@]3(C)C(=CC[C@H]4[C@@H]5CC[C@H]([C@H](C)CCCC(C)C)[C@@]5(C)CC[C@@H]43)C2)ccc1-c1c2cc(F)c(=O)cc-2oc2cc(O)c(F)cc12 [compound 5]
Return: 3.01 ± 0.26 ×10^5

Enquiry: Another: Cc1cc(C(=O)N[C@@H](CCC(=O)O)C(=O)NCCC(=O)NCCCN[C@H]2CC[C@@]3(C)C(=CC[C@H]4[C@@H]5CC[C@H]([C@H](C)CCCC(C)C)[C@@]5(C)CC[C@@H]43)C2)ccc1-c1c2cc(F)c(=O)cc-2oc2cc(O)c(F)cc12 [compound 4]
Return: 2.54 ± 0.12 ×10^5

Enquiry: Do the same for CC[C@H](CC[C@@H](C)[C@H]1CC[C@H]2[C@@H]3CC=C4C[C@@H](NCCCNC(=O)CCNC(=O)[C@H](CCC(=O)O)NC(=O)c5ccc(-c6c7cc(F)c(=O)cc-7oc7cc(O)c(F)cc67)c(C)c5)CC[C@]4(C)[C@H]3CC[C@]12C)C(C)C [compound 8] please
Return: 1.3 ± 0.29 ×10^5

Enquiry: What do you get for Cc1cc(C(=O)N[C@@H](CCC(=O)O)C(=O)N[C@@H](CCC(=O)O)C(=O)NCCCN[C@H]2CC[C@@]3(C)C(=CC[C@H]4[C@@H]5CC[C@H]([C@H](C)CCCC(C)C)[C@@]5(C)CC[C@@H]43)C2)ccc1-c1c2cc(F)c(=O)cc-2oc2cc(O)c(F)cc12 [compound 7] ?
Return: 3.2 ± 1.3 ×10^5

Enquiry: Consider next the compound Cc1cc(C(=O)N[C@@H](CCC(=O)O)C(=O)NCCC(=O)NCCC(=O)N[C@H]2CC[C@@]3(C)C(=CC[C@H]4[C@@H]5CC[C@H]([C@H](C)CCCC(C)C)[C@@]5(C)CC[C@@H]43)C2)ccc1-c1c2cc(F)c(=O)cc-2oc2cc(O)c(F)cc12 [compound 10] in the same way.
Return: 2.2 ± 0.30 ×10^5
